Ref: patent US3972882A

- protocol: toxicity test (LD50)
- setup.conditions: mouse, in vivo, po; mice; read-out: LD50 p.o.
Please go through the items and note down their LD50.
One number for each entry, in mg/kg.

Provide reported LD50 for each item, in the same order as listed.
1. CCOC(=S)Nc1nc(OC)nc(OC)n1
2. COC(=S)Nc1nc(OC)nc(OC)n1

1. 1020
2. 1050

====

- Tested on: carregeenin oedema
- protocol: Anti-carregeenin oedema activity (Winter method)
- Assay type: in vivo, male rats
- setup.conditions: 500 mg/kg p.o.
readout.name: Inhibition of oedema, Peak (maximum oedema inhibition) (%)
Answers are plain numbers, in %.

COC(=O)Nc1nc(OC)nc(OC)n1; 61.4
COC(=S)Nc1nc(OC)nc(OC)n1; 78.3
CCOC(=S)Nc1nc(OC)nc(OC)n1; 64.5

Lab note: next molecule to report on.
So what does the record say about Inhibition of oedema, Peak (maximum oedema inhibition) for "CCOC(=S)Nc1nc(O)nc(O)n1" ?
13.0
